Would you kindly list % Inhibition for each of these molecules?
Tested on: Plasmodium falciparum
measurement-notes: Confirmatory screen in NF54 nanoGlo assay, in single point, at 2uM, 72h
Assay type: functional, Erythrocyte
assay-conditions: timepoint 72 hour
Hit rate of the full screen: of about 4,800 compounds, about 420 (8.8%) showed an effect of 50% or more. This is one part of a sample in which strong results are shown more often than they occur.
Numbers only, in %.

CCCOc1ccc(Nc2cc(C)nc3ccc(Cl)cc23)cc1 :: 42
C=CCCCNc1ccc(C(N)=O)c(F)c1 :: -1
CN(C)Cc1ccc(O)c(CCc2ccccc2)n1 :: 29
O=C(Nc1ccc(N2CCn3c(nc4cc(Cl)ccc43)C2)cc1)c1ccc(F)cc1 :: -6
COc1ccc(CCNC(=O)c2cc3n(n2)CCN(Cc2cccc(F)c2)C3=O)cc1OC :: 17
COc1ccc(CCNC(=O)c2cc3c(=O)[nH]c(C)cn3n2)cc1OC :: 67
CN(Cc1cccnc1)c1ccc(S(=O)(=O)C(F)F)cc1 :: -5
Cc1noc2nc(C3CC3)cc(C(=O)N3CCC[C@H](C)CC3)c12 :: -11

Record % Inhibition for all entries; do not skip any.
1. CC1(C)Oc2ccc(NC(=O)COc3ccccc3)cc2NC1=O
2. COc1ccc(-c2cc3c(N4CCN(C)CC4)nccn3n2)cc1OC

Data returned:
1: 11; 2: 1

###

System: Plasmodium falciparum
measurement-notes: Confirmatory screen in NF54 nanoGlo assay, in single point, at 2uM, 72h
Format: functional, Erythrocyte
assay-conditions: timepoint 72 hour
In all, about 4,800 compounds went through this assay and about 420 (8.8%) showed an effect of 50% or more. The sample as a whole holds a higher share of strong results than the screen did.
Consider the following molecules; for each one, report its % Inhibition.
Just the number plus its unit, please.

O=C(Cc1ccccc1)Nc1cccc2c1C(=O)N(c1ccccc1)C2=O :: -14%
COCc1cc(F)ccc1NC(=O)NC1CCN(c2cc(C)nc(C)n2)CC1 :: -5%
O=C(Nc1nc2ccc(F)cc2s1)c1cccc2c(Br)cccc12 :: -1%
CCc1cccc(NC(=O)N2CCN(C3=CC4=NC[C@H](C)N4C=N3)CC2)c1 :: 46%
COc1ccc(-n2ncc(Oc3cccc(C)c3)c(Nc3cccc(C(=O)NCc4ccc(F)cc4)c3)c2=O)cc1 :: 50%
CCC1(CC)CN(C(=O)c2ccn(C)c(=O)c2)c2ccccc21 :: 2%
CC(C)c1ccc(Oc2cnn(-c3cccc(Cl)c3)c(=O)c2Nc2cccc(C(=O)NC3CC3)c2)cc1 :: 48%

Data request: Retrieve % Inhibition measured for `O=C(CCC(=O)c1ccc(F)cc1F)NS(=O)(=O)c1cccnc1` and print it.
Data returned: -4%

###

Tested on: Plasmodium falciparum
measurement-notes: Confirmatory screen in NF54 nanoGlo assay, in single point, at 2uM, 72h
Format: functional, Erythrocyte
assay-conditions: timepoint 72 hour
Hit rate of the full screen: of about 4,800 compounds, about 420 (8.8%) showed an effect of 50% or more. For the sample, strong results were picked, then their nearest neighbours and some compounds at random.
Assignment: determine reported % Inhibition for the given molecules.
One number for each entry, in %.

The cases that follow already have their % Inhibition on record.
CC(C)(C)OC(=O)NCc1ccccc1O :: 1
O=C(NC(Cn1ccccc1=O)c1ccccc1)C1CCOC1 (stereo not drawn) :: 2
CNC(=O)CCS(=O)(=O)CCCC(=O)Nc1c(C)cc(C)cc1C :: -14
NC(=O)CN1CCC2(CC1)NC(c1ccc(OC(F)(F)F)cc1)=NO2 :: 0
N#Cc1c(-c2ccccc2)cc(-c2ccccc2)nc1S(=O)(=O)Cc1ccccc1 :: 35
C[C@H](C(=O)NCC1CCN(Cc2ccccc2F)CC1)C1CCOCC1 :: -6
CC(=O)N1CCCN(S(=O)(=O)Cc2ccccc2Cl)CCNC(=O)[C@@H]2CCC[C@@H]21 :: 0
Cc1ccnc2nc(C(=O)N(C)c3ccc(Cl)cn3)nn12 :: 16
CCc1ccc([C@H]2NCCc3[nH]cnc32)nc1 :: 29
CC(Oc1ccc2c(c1)C(c1ccccc1)N(Cc1ccccc1F)CC2)C(=O)NC1CC1 (stereo not drawn) :: 56

Would you mind giving % Inhibition for every molecule in the list below?
1. O=C(N[C@@H](Cn1nccn1)c1ccccc1)c1cc(Br)ccc1Cl
2. COc1ccc2cc3n(c2c1)C[C@](C(=O)NC1CCCCCC1)(c1ccccc1)N(Cc1ccccc1F)C3=O
3. CC(C)n1ccc(CN2CCC[C@H](c3cc(C(F)(F)F)[nH]n3)C2)n1
4. CCCC(=O)Nc1ccc(N2CCN(CC(=O)N(CC)CC)CC2)cc1C(=O)O
5. CC(C)(C)n1nc2nc(NCCN3CCCCC3)nc(-c3ccc(F)c(Cl)c3)c2c1N

Data returned:
1. 65
2. -17
3. -9
4. -2
5. 62

For each of the molecules below, note its % Inhibition.
1. CC(C)(C)OC(=O)NC1CCN(c2ncc(C(=O)NCc3ccc(F)c(Cl)c3)c(N)n2)CC1
2. O=C(Nc1cnc(-n2ccnc2)nc1)C(c1ccccc1)c1ccccc1

Data returned:
1. -17
2. 36

Data request: Consider the molecule `Cc1ccc(OCC(=O)Nc2ccc(N3CCn4c(nc5ccccc54)C3)cc2Cl)cc1` . State its measured % Inhibition.
Data returned: -17

###

Test system: Plasmodium falciparum
measurement-notes: Confirmatory screen in NF54 nanoGlo assay, in single point, at 2uM, 72h
Format: functional, Erythrocyte
assay-conditions: timepoint 72 hour
Among all 4,800 compounds or so, about 420 (8.8%) showed an effect of 50% or more. This is one part of a sample in which strong results are shown more often than they occur.
Would you mind telling me the reported % Inhibition of each entry?
Numbers only, in %.

Examples from the recorded data:
C[C@H](C#N)CNc1ncc(Br)cn1 :: 1
COc1cc(C(c2c(C)n(C)n(-c3ccccc3)c2=O)c2c(C)n(C)n(-c3ccccc3)c2=O)c(Br)c(Br)c1OCc1ccccc1 :: 7
Cc1ccc(NC(=O)Cn2c(=O)n(Cc3ccco3)c(=O)c3ccccc32)c(C)c1 :: -12

Now for a further molecule.
Data request: For `O=C(NCc1cccnc1Oc1ccccc1)c1cccnc1` , write its % Inhibition.
Data returned: 5

###

System: Plasmodium falciparum
measurement-notes: Confirmatory screen in NF54 nanoGlo assay, in single point, at 2uM, 72h
Format: functional, Erythrocyte
assay-conditions: timepoint 72 hour
About 420 (8.8%) of roughly 4,800 compounds showed an effect of 50% or more. This is one part of a sample in which strong results are shown more often than they occur.
reported-endpoint: % Inhibition (%)
One number for each entry, in %.

CCC[C@@]1(C)C(=O)NCCN1Cc1nnc(-c2ccc(Cl)cc2)n1C :: -10
Cc1ccsc1NC(=O)OC(C)(C)C :: 1

Let us examine a further case.
Data request: Provide only the value of recorded % Inhibition for `CC1CCN(C[C@@H](O)CNc2nnc(C(F)(F)F)s2)CC1`
Data returned: -10

###

System: Plasmodium falciparum
measurement-notes: Confirmatory screen in NF54 nanoGlo assay, in single point, at 2uM, 72h
Type: functional, Erythrocyte
assay-conditions: timepoint 72 hour
The whole screen tested about 4,800 compounds, of which about 420 (8.8%) showed an effect of 50% or more. Many of the other results were omitted from the sample, so strong results are more common in it than they were.
reported-endpoint: % Inhibition (%)
Numbers only, in %.

Below: 2 compounds and their reported % Inhibition.
O=C(N1CCCN(c2nc3ccccc3nc2-c2ccccc2)CC1)C(Cl)(Cl)Cl :: 46
COc1ccc(S(=O)(=O)N2CCN(C(=O)N(C)C)[C@@H]2c2ccccc2)cc1 :: 0

Could you report % Inhibition for every entry in the following list?
1. COc1cc(CNCCN2CCOCC2)ccc1OCc1cccc(C)c1
2. C=C1C(C)C2C(Cc3c[nH]c4ccccc34)NC(=O)C23C(=O)CC(O)C(O)CC(C)C/C=C/C3C1O (stereo unspecified)
3. Cc1c(C2CC2)n[nH]c1NC(=O)C1CC1c1ccccc1 (stereo unspecified)
4. CCn1cc(-c2cc(C(F)(F)F)nc(N3CCCC3)n2)cn1
5. COC[C@H](NC(=O)c1cccc(F)c1Cl)C(N)=O
6. O=C(Nc1cccc(Oc2c(F)c(F)c(-c3c(F)c(F)c(Oc4cccc(NC(=O)c5ccccc5)c4)c(F)c3F)c(F)c2F)c1)c1ccccc1
7. O=C(c1cc2c(s1)CCCC2)N1CCC[C@H](c2nnc3ccccn23)C1
8. Cn1n[n+](CC(=O)Nc2ccccc2Cl)c2ccccc21

Data returned:
-2
44
-1
4
-8
5
-17
-5

Items follow; give % Inhibition for each.
1. CCOc1ccccc1C(=O)Nc1c(-n2cnnc2)nn(C)c1C
2. CN(C)c1c(F)c(F)c2cc3c(C(C)(C)C)nn(C)c3nc2c1F
3. Cc1cnc(-n2cnnc2)c(-c2ccc(S(C)(=O)=O)cc2)c1

Data returned:
[2, 3, -3]

Just for reference, ChEMBL document CHEMBL4888484 is where these values come from.
